Where do the numbers come from? From PubChem BioAssay (NCI).

# growth listing for each entry below
# Test system: NCI/ADR-RES ovarian
# procedureSummary: NCI-60 one-dose screen, 48 h (100 = growth as untreated, 0 = no growth, -100 = all killed)
# setupConditions: 10 µM unless noted
The panel holds about 83,000 compounds, 20% with a hit somewhere; the sample as a whole holds those more often. The source made the active and inactive calls. The calls were made as follows: active = growth percent below 10; inactive = the rest.
propertyName: growth

1) COc1ccc(CC(C#N)c2ccc(Cl)cc2)cc1 (centres undefined) :: 42.5% (inactive)
2) COc1cc2c(cc1OC(C)=O)C(=O)CCCC2 :: 97.7% (inactive)
3) COc1ccc2c(c1)C(C)Cc1c(Cl)nc(C)nc1N2C (centres undefined) :: 4.74% (active)
4) CC(C)[C@H]1COC(=O)N1[C@@H]1C(=O)N([C@@H](CCC(=O)N2CCN(C3CCCC3)CC2)C(=O)N[C@@H]2CCCc3ccccc32)[C@@H]1/C=C/c1cccc(Cl)c1 :: 64.1% (inactive)
5) Cc1ccc(S(=O)(=O)NCCCNc2nccc(-c3c(-c4cccc(F)c4)nc4occn34)n2)cc1 :: 85% (inactive)
6) CCOC(=O)c1c[nH]n2c(=S)ncnc12 :: 99.1% (inactive)
7) Fc1cc2[nH]ncc2c2c3c(c(-c4cn[nH]c4C(F)(F)F)nc12)C1CCC3C1 (centres undefined) :: 55.7% (inactive)
8) CCCCCn1c(C)cc(/C=C\c2ccc3cc(C)ccc3[n+]2C)c1C :: 59.1% (inactive)
9) O=C(N=c1n(-c2ccccc2)nc2n1CCN2C1=NCCN1)c1ccc(Cl)cc1 :: 93.6% (inactive)
10) CCN(CC)CCCC(C)Nc1c2ccc(C)cc2nc2ccc(OC)cc12 (centres undefined) :: 64% (inactive)
11) O=C(Oc1ccc(Cl)cc1[N+](=O)[O-])Oc1ccc(Cl)cc1[N+](=O)[O-] :: 119% (inactive)
12) COc1ccc(-c2cc(-c3ccc(OC)c(OC)c3)nc(SCCCCCC(=O)NO)n2)cc1 :: 101% (inactive)
13) Cc1ccc(NCCN2CCCCC2)c2c(=O)c3ccccc3sc12 :: 42% (inactive)
14) CNc1cc(C(=O)O)nc(NC)n1 :: 99.4% (inactive)
15) CC1=CC[C@@H]2C(C)(C)C(=O)CC[C@@]2(C)[C@@H]1COc1ccc2ccc(=O)oc2c1 :: 28.4% (inactive)
16) Clc1ccc2nc(-c3ccc(-c4ccc(/C=N/NC5=NCCN5)cc4)s3)cn2c1 :: 99.3% (inactive)
17) O=C1/C(=C/c2cccc(OCc3ccccc3)c2)Oc2cc(OCCN3CCCCC3)ccc21 :: 82.7% (inactive)
18) COc1cc2c(O)n(CCCN3CCOCC3)c3c4cnc5cccc(c(=O)c3c2cc1OC)c54 :: 74.5% (inactive)
19) CC1(C)CC(=O)c2c(ccc(C(=O)C[C@@H](N)CO)c2N)O1 :: 35% (inactive)
20) CCOc1cc(NC(=O)c2ccccc2)c(OCC)cc1N :: 111% (inactive)
21) O=C1Nc2ccccc2/C1=C/C(=O)c1ccc(N2CCCCC2)cc1 :: 90.3% (inactive)
22) C[C@@H](NC(=O)[C@@H](CC(=O)N1CCC(N2CCCCC2)CC1)N1C(=O)[C@@H](N2C(=O)OC[C@@H]2c2ccccc2)[C@H]1/C=C/c1cccc(Cl)c1)c1ccccc1 :: 98% (inactive)
23) CCCOc1ccc(-c2nc(-c3ccc(N)cc3)cs2)cc1 :: 97.9% (inactive)
24) C#CCNC(=O)CC[C@]1(C)[C@H]2CC[C@@H]3[C@@H]([C@@](C)(O)CCC=C(C)C)CC[C@@]3(C)[C@]2(C)CC[C@H]1C(=C)C :: 53.6% [100 µM] (inactive)
25) CCn1cc(-c2ccnc(NCCNS(=O)(=O)c3ccc(Br)cc3)c2)c(-c2cccc(OC)c2)n1 :: 73.9% (inactive)
26) CCOC(=O)c1cnc2ccc(Br)cc2c1Nc1cccc(S(N)(=O)=O)c1 :: 97.4% (inactive)
27) Cc1nn(-c2ccccc2)c(N2CCOCC2)c1-c1nc2ccc([N+](=O)[O-])cc2[nH]1 :: 105% (inactive)
28) O=c1[nH]c(CN2CCN(c3cccc(Cl)c3)CC2)nc2cc(Cl)ccc12 :: 86.4% (inactive)
29) CN(C)c1ccc(-c2ccc(-c3ccc(C(=N)N)cc3)s2)cc1 :: 46.3% (inactive)
